Tested on: 186277-243-T-J2-PDC complex spheroids, viability;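 further: spheroids exposed to compounds for 7 days before viability read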
Assay: Anticancer human tumor 186277-243-T-J2-PDC patient-derived colon adenocarcinoma cell line growth inhibition [RAS]; active means viability on the fitted dose curve at most 10% of control; inactive means the rest
Conditions: second compound 0.00949 µM; first compound 3.16 µM
From the text: RAS pathway inhibitors in Combinations in Complex Spheroids A high-throughput screen of multi-cell type tumor spheroids was designed to identify active combinations of RAS pathway inhibitors and targeted small molecules. Complex spheroids include a stromal component modeled by human endothelial cells (HUVEC) and fibroblasts modeled by human mesenchymal stem cells (MSCs). […] Compounds. […] If the clinical Cmax for an agent had not been determined, the highest concentration tested was 10 microM. […]
Labels: 1 = active, -1 = inactive

[[record]]
molecule = "NC1c2ccccc2OC12CCN(c1cnc3c(N4CCCc5ncccc54)n[nH]c3n1)CC2 (stereo not given) + CCn1c(-c2cccnc2C(C)OC)c2c3cc(ccc31)N1CCOC(CC(NC(=O)C(C(C)C)N(C)C(=O)C3(F)CCN(C(=O)C#CC(C)(C)N(C)C)CC3)C(=O)N3CCCC(N3)C(=O)OCC(C)(C)C2)C1"
subject_of_test = "186277-243-T-J2-PDC complex spheroids, viability"
label_class = -1

[[record]]
molecule = "CC(=O)OC12COC1CC(O)C1(C)C(=O)C(O)C3=C(C)C(OC(=O)C(O)C(NC(=O)OC(C)(C)C)c4ccccc4)CC(O)(C(OC(=O)c4ccccc4)C21)C3(C)C (stereo not given) + CCn1c(-c2cc(N3CCN(C)CC3)cnc2C(C)OC)c2c3cc(ccc31)-c1csc(n1)CC(NC(=O)C1CC1C)C(=O)N1CCCC(N1)C(=O)OCC(C)(C)C2"
subject_of_test = "186277-243-T-J2-PDC complex spheroids, viability"
label_class = 1

[[record]]
molecule = "CCC(CC)c1cc(NC2CCC(N)C2)n2nccc2n1 (stereo not given) + CCn1c(-c2cc(N3CCN(C)CC3)cnc2C(C)OC)c2c3cc(ccc31)-c1csc(n1)CC(NC(=O)C1CC1C)C(=O)N1CCCC(N1)C(=O)OCC(C)(C)C2"
subject_of_test = "186277-243-T-J2-PDC complex spheroids, viability"
label_class = 1

[[record]]
molecule = "CC1(O)CCCC1n1c(=O)c(C(F)F)cc2cnc(NC3CCN(S(C)(=O)=O)CC3)nc21 (stereo not given) + CCn1c(-c2cccnc2C(C)OC)c2c3cc(ccc31)N1CCOC(CC(NC(=O)C(C(C)C)N(C)C(=O)C3(F)CCN(C(=O)C#CC(C)(C)N(C)C)CC3)C(=O)N3CCCC(N3)C(=O)OCC(C)(C)C2)C1"
subject_of_test = "186277-243-T-J2-PDC complex spheroids, viability"
label_class = -1

[[record]]
molecule = "C[C@@H](NC(=O)c1ncnc(N)c1Cl)c1ncc(C(=O)Nc2cc(C(F)(F)F)c(Cl)cn2)s1 + CCn1c(-c2cccnc2C(C)OC)c2c3cc(ccc31)N1CCOC(CC(NC(=O)C(C(C)C)N(C)C(=O)C3(F)CCN(C(=O)C#CC(C)(C)N(C)C)CC3)C(=O)N3CCCC(N3)C(=O)OCC(C)(C)C2)C1"
subject_of_test = "186277-243-T-J2-PDC complex spheroids, viability"
label_class = -1

[[record]]
molecule = "NC1c2ccccc2OC12CCN(c1cnc3c(N4CCCc5ncccc54)n[nH]c3n1)CC2 (stereo not given) + CCn1c(-c2cc(N3CCN(C)CC3)cnc2C(C)OC)c2c3cc(ccc31)-c1csc(n1)CC(NC(=O)C1CC1C)C(=O)N1CCCC(N1)C(=O)OCC(C)(C)C2"
subject_of_test = "186277-243-T-J2-PDC complex spheroids, viability"
label_class = 1

[[record]]
molecule = "Cc1nc(N2CCC3(CC2)COC(C)C3N)c(CO)nc1Sc1ccnc(N)c1Cl (stereo not given) + CCn1c(-c2cc(N3CCN(C)CC3)cnc2C(C)OC)c2c3cc(ccc31)-c1csc(n1)CC(NC(=O)C1CC1C)C(=O)N1CCCC(N1)C(=O)OCC(C)(C)C2"
subject_of_test = "186277-243-T-J2-PDC complex spheroids, viability"
label_class = 1

[[record]]
molecule = "CC1(O)CCCC1n1c(=O)c(C(F)F)cc2cnc(NC3CCN(S(C)(=O)=O)CC3)nc21 (stereo not given) + CCn1c(-c2cc(N3CCN(C)CC3)cnc2C(C)OC)c2c3cc(ccc31)-c1csc(n1)CC(NC(=O)C1CC1C)C(=O)N1CCCC(N1)C(=O)OCC(C)(C)C2"
subject_of_test = "186277-243-T-J2-PDC complex spheroids, viability"
label_class = -1

[[record]]
molecule = "CCC(CC)c1cc(NC2CCC(N)C2)n2nccc2n1 (stereo not given) + CCn1c(-c2cccnc2C(C)OC)c2c3cc(ccc31)N1CCOC(CC(NC(=O)C(C(C)C)N(C)C(=O)C3(F)CCN(C(=O)C#CC(C)(C)N(C)C)CC3)C(=O)N3CCCC(N3)C(=O)OCC(C)(C)C2)C1"
subject_of_test = "186277-243-T-J2-PDC complex spheroids, viability"
label_class = -1

[[record]]
molecule = "CC(Nc1ccc2c(c1)OCCn1cc(N3C(=O)OCC3C(F)F)nc1-2)C(N)=O (stereo not given) + CCn1c(-c2cc(N3CCN(C)CC3)cnc2C(C)OC)c2c3cc(ccc31)-c1csc(n1)CC(NC(=O)C1CC1C)C(=O)N1CCCC(N1)C(=O)OCC(C)(C)C2"
subject_of_test = "186277-243-T-J2-PDC complex spheroids, viability"
label_class = 1

